- System: H4
- assay explanation: Luminescence Cell-Based Dose Response HTS to Identify Activators of 5'UTR Stem-Loop Driven Prion Protein mRNA Translation in H4 Neuroglioblastoma Cells. [Related pubchem assays: 1829 (Project Summary), 1814 (Primary HTS)]
- Type: functional
- condition: Homo sapiens
Active and inactive are the calls of the source. Cut-off read from the data, not from the text of the source: actives have a measured EC50 and inactives only a lower limit.
measured endpoint: EC50

Which EC50 reading was recorded for the compound C=C(C)CSc1nncn1/N=C/c1ccc(OC)cc1 ?
11.9 µM (active)

Returns the measured EC50 for the input compound. Input: Cc1ccc(Oc2nn[nH]n2)cc1
> 120 µM (not active)

Find the recorded EC50 belonging to CSc1ccccc1NC(=O)c1cc(-c2cccs2)on1 and report it.
17.9 µM (active)

Consider the compound Cc1cc(NC(=O)CSc2nc3c(C)cccc3cc2C#N)no1 and give its measured EC50.
16.1 µM (active)

Can you look up the measured EC50 of CCOC(=O)C1CCN(S(=O)(=O)c2c(Cl)ccc3nonc23)CC1 for me?
> 120 µM (not active)
